- Measured on: T1, HIS-PDZ1-2 with tryptophan instead of isoleucine (PDZ1-2 I195W) (human, UniProt P78352 61-249)
- T1 construct: Used in the stopped-flow fluorimetry of ligand 74; also called PDZ1-21195W (so in the source)
- Protocol: stopped-flow fluorimetry, Trp fluorescence; stopped-flow fluorescence titration, not FP
Ends that are not written are not given here.
Outcome measure: Ki

Q: Give the reported value of Ki for this record: {PEG12‑diacid}-IESDV (also: dimer: two peptides N-terminally joined via PEG12-diacid, Dimeric ligand) [(IESDV)2PEG12 (74)]
A: ~0.1 µM
